Data credit: PubChem BioAssay (NCI)

Tested on: BT-549 breast
Experiment: NCI tumour cell line growth inhibition, 48 h
Test Readout: TGI

Below, 2 molecules whose answers are already recorded.
compound=CC(=O)OC[C@@]12Cc3ccc(C)c(O)c3[C@]1(C)[C@@H](OC(C)=O)[C@]1(O)[C@H]([C@@H](OC(=O)c3ccccc3)[C@@H](C)[C@H]1OC(C)=O)[C@H]2OC(C)=O tested_system="BT-549 breast" test_value="> 50 µM"
compound=COC(=O)c1cc2c3ccccc3[nH]c2c2sccc12 tested_system="BT-549 breast" test_value="57 µM"

Then this molecule:
Q: Please give the measured TGI for this molecule: O=C1c2ccccc2C(=O)c2c(Nc3cc4c5c(ccc6c7ccc8c9c(cc(Nc%10cccc%11c%10C(=O)c%10ccccc%10C%11=O)c(c3c56)c97)-c3ccccc3C8=O)C(=O)c3ccccc3-4)cccc21
Result: > 100 µM

* * *

Tested on: MCF7 breast
Experiment: NCI tumour cell line growth inhibition, 48 h; in the data active = GI50 below about 0.43 µM; inactive = the rest
Permitted responses: active, inactive

Study these solved cases before continuing.
molecule=O=C1/C(=C/c2ccc(Cl)cc2)CCC/C1=C\c1ccc(Cl)cc1 category=inactive
molecule=O=C1c2ccccc2-c2c1c1c(O)cccc1n2Cc1ccccn1 category=inactive
molecule=NS(=O)(=O)CC1CC[CH-]CC1.[Cl-].[Cl-].[Cl-].[Cl-].[Cl-].[Sb+5].c1ccncc1 category=inactive

Q: Look up the recorded call for O=C(NO)[C@@H](Cc1ccccc1)NS(=O)(=O)c1ccc(-c2ccccc2)cc1 in this test.
Result: inactive

Q: Check the results log: what was the call for C=C(CO)[C@@H]1CC[C@]2(COC3CCCCO3)CC[C@]3(C)[C@H](CC[C@@H]4[C@@]5(C)C=C(C=O)C(=O)C(C)(C)[C@@H]5CC[C@]43C)[C@@H]12 (stereo partly specified) ?
Result: inactive

Q: Recorded test outcome, item COc1ccc2c(c1)C(=O)/C(=C/c1ccc([N+](=O)[O-])o1)O2
Result: inactive

Q: Query: recorded result category for Cc1cc(N2CCOCC2)nc(N(CCCNc2ccnc3cc(Cl)ccc23)Cc2ccco2)n1 in this test
Result: inactive

Q: Called result for O=C(O)c1c(=O)cccc2ssc12
Result: inactive

* * *

System: RPMI-8226 leukemia
Test: NCI tumour cell line growth inhibition, 48 h
Test Readout: GI50

Examples with their reported GI50 follow.
compound=C/C(=C\c1cc(C(F)(F)F)n(-c2ccc(N)cc2)n1)[C@@H]1C[C@@H]2O[C@]2(C)CCC[C@H](C)[C@H](O)[C@@H](C)C(=O)C(C)(C)[C@@H](O)CC(=O)O1 tested_system="RPMI-8226 leukemia" test_value="< 0.0106 µM"
compound=C/C(O)=C(\C#N)C(=O)Nc1ccc(C(F)(F)F)cc1 tested_system="RPMI-8226 leukemia" test_value="24.8 µM"

Q: What GI50 value was documented for this compound, NS(=O)(=O)c1ccc(N(/C=C/C(=O)C(F)(F)F)Cc2ccc(Cl)cc2)cc1 ?
Result: 26.2 µM

Q: // query GI50 value for entry CCCCCCCCCNC(=O)/C=C/c1ccc(O)c(O)c1
Result: 0.61 µM

Q: Endpoint output: GI50 of CC([C@H]1CCC2C3CCC4C[C@@H](N)CC[C@]4(C)C3CC[C@@]21C)N(C)C (stereo partly drawn) . Value?
Result: 3.04 µM

Q: Endpoint output: GI50 of CC(=O)O[C@H]1[C@@H]2OC(=O)C(CSc3ccccc3)[C@@H]2C[C@H]2O[C@]2(C)CC/C=C(\C)CCC[C@@H]1C (stereo partly drawn) . Value?
Result: 0.192 µM

Q: // query GI50 value for entry N#Cc1cc(S(=O)(=O)Nc2nnc(-c3ccccc3)c(-c3ccccc3)n2)c(SCc2ccccc2)cc1Cl
Result: 16.4 µM

Q: Quick check: GI50 of CC1=C(C(=O)Nc2cc(Cl)c3[nH]ncc3c2)C(c2ccc(C(F)(F)F)cc2)CC(=O)N1 (stereo not drawn) ?
Result: 24.9 µM
